Tested on: NCI-H23
Test: NCI tumour cell line growth inhibition, 48 h
Activity calls are given as the source filed them. Cut-off read from the data, not from the text of the source: active = GI50 up to about 1.1 µM and inactive = higher.
Possible outcomes: active, inactive

molecule=O=C(CN1C(=O)c2ccccc2C1=O)NC1(C(=O)O)CCCC1 target_desc=NCI-H23 group_label=inactive
molecule="COC1/C=C\\C=C(/C)C(=O)NC2=CC(=O)C(O)=C(CC(C)CC(OC)C(O)C(C)/C=C(\\C)C1OC(N)=O)C2=O (configuration not stated)" target_desc=NCI-H23 group_label=active
molecule=COc1ccccc1Nc1nc(N)nc(N)c1N=O target_desc=NCI-H23 group_label=inactive
molecule=O=C(NC/C(Cl)=C/Cl)Nc1c2ccccc2nc2ccccc12 target_desc=NCI-H23 group_label=inactive
molecule="COC(=O)C1CC(C(=O)OC)c2nc3cc([N+](=O)[O-])ccc3nc21 (configuration not stated)" target_desc=NCI-H23 group_label=inactive
molecule=O=C1OC(c2ccccc2)=N/C1=C\c1ccc(Cl)cc1 target_desc=NCI-H23 group_label=inactive
molecule="CC(=O)N1C(Nc2cnc3ccccc3c2)CCN1c1ccccc1 (configuration not stated)" target_desc=NCI-H23 group_label=inactive
molecule=CC[C@@]1(O)C(=O)OCc2c1cc1n(c2=O)Cc2c-1nc1ccccc1c2/C=N\NC(=O)C[n+]1ccccc1 target_desc=NCI-H23 group_label=active
molecule=N=c1oc2cc(O)ccc2cc1C(=O)NCc1ccccc1 target_desc=NCI-H23 group_label=inactive
molecule=O=c1cc(-c2ccccc2)[nH]c2cc(F)c(F)cc12 target_desc=NCI-H23 group_label=active
molecule=O=C(O)c1ccccc1C(=O)c1ccco1 target_desc=NCI-H23 group_label=inactive
molecule="COc1ccc(C(c2ccc3c(c2)OCO3)N2C(=O)CCC2C(=O)O)cc1 (configuration not stated)" target_desc=NCI-H23 group_label=inactive
molecule=COc1ccc2nc3cc(Cl)ccc3c(NCCC[N+](C)(C)CCCCCCCCCCCCCCCC[N+](C)(C)CCCNc3c4ccc(Cl)cc4nc4ccc(OC)cc34)c2c1 target_desc=NCI-H23 group_label=inactive
molecule="c1ccc(C2SCc3nc4cc5ccccc5cc4n32)cc1 (configuration not stated)" target_desc=NCI-H23 group_label=inactive
molecule=Sc1nnc(/C=C/c2ccc(Cl)c(Cl)c2)[nH]1 target_desc=NCI-H23 group_label=inactive
molecule=Cc1ccc(S(=O)(=O)c2c3nc4ccccc4nc3n3c2[nH]c2ccccc23)cc1 target_desc=NCI-H23 group_label=inactive
molecule=O=C(O)c1cc2ccccc2c(O)c1O target_desc=NCI-H23 group_label=inactive
molecule="CCO/C=C1\\N=C(C(Cl)c2ccccc2)OC1=O (configuration not stated)" target_desc=NCI-H23 group_label=inactive
molecule=Cc1ccc(NC2=NCCO2)c2c1CCC2 target_desc=NCI-H23 group_label=inactive
molecule=COc1cc2c3c(n(C)c(=O)c2cc1OC)-c1cc2c(cc1/C3=C\CCCCl)OCO2 target_desc=NCI-H23 group_label=inactive
molecule="C1CSCCSS[C@@H]2CCCCC2SC1 (some centres not stated)" target_desc=NCI-H23 group_label=inactive
molecule="COc1cc2cc(C(=O)N3CC(CCl)c4c3cc(N(C)C)c3ccccc43)[nH]c2c(OC)c1OC (configuration not stated)" target_desc=NCI-H23 group_label=active

---

Test system: MOLT-4
Assay: NCI tumour cell line growth inhibition, 48 h
Active and inactive are the calls of the source. No stated cut-off is given here; in the data, active = GI50 up to about 1.1 µM and inactive = higher.
recorded.endpoint: GI50

compound=O=C(C(Cl)=C(Nc1ccccc1)Nc1ccccc1)C(Cl)Cl target_desc=MOLT-4 recorded_endpoint=GI50 measurement="16 µM (inactive)"
compound=Cc1cc(S(=O)(=O)Nc2nnc3c4ccccc4cnn23)c(S)cc1Cl target_desc=MOLT-4 recorded_endpoint=GI50 measurement="> 100 µM (inactive)"
compound=COc1ccc(Sc2ccccc2N)cc1 target_desc=MOLT-4 recorded_endpoint=GI50 measurement="26.9 µM (inactive)"
compound=O=NN(CCCl)C(=O)N[C@H]1CC[C@@H](C(=O)O)CC1 target_desc=MOLT-4 recorded_endpoint=GI50 measurement="32.2 µM (inactive)"
compound=Cc1ccccc1NC(=O)O/N=C(\Cl)C(C)C target_desc=MOLT-4 recorded_endpoint=GI50 measurement="2.74 µM (inactive)"
compound=Cc1cccc(C[C@@]2(SCc3ccccc3)C(C)(C)[C@@H]3CC[C@@]2(C)C3)n1 target_desc=MOLT-4 recorded_endpoint=GI50 measurement="12.6 µM (inactive)"
compound="OC12CC3c4ccccc4NC3C3Oc4cccc5c4C31CCN(CC1CC1)C2C5 (stereo not given)" target_desc=MOLT-4 recorded_endpoint=GI50 measurement="15.5 µM (inactive)"
compound=O=C1Cc2c([nH]c3ccccc23)-c2ccccc2N1 target_desc=MOLT-4 recorded_endpoint=GI50 measurement="17.1 µM (inactive)"
compound=CCOC(=O)c1nc2ccccc2nc1Nc1ccc(OC)c(OC)c1 target_desc=MOLT-4 recorded_endpoint=GI50 measurement="> 100 µM (inactive)"
compound="COC(=O)C1=COC2OC3/C(=C\\c4ccc(O)c(OC)c4)C(=O)OC34C=CC1C24 (stereo not given)" target_desc=MOLT-4 recorded_endpoint=GI50 measurement="31.2 µM (inactive)"
